Numbers sourced from paper PMC8862607.

# system-tested: AntR Y96W derivative (Comamonas testosteroni, UniProt A0A096F4H2, Y97W)
# Sequence (A0A096F4H2 1-124 Y97W): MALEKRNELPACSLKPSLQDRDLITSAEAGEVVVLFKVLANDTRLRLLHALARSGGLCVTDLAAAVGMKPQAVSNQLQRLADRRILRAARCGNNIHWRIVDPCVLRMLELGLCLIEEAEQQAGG
# test-conditions: read-out: apparent Kd (fluorescence quenching); pH 7.8
quantity-kind: Kd

Prompt: Record lookup: for AntR Y96W derivative (Comamonas testosteroni, UniProt A0A096F4H2, Y97W), what Kd belongs to O[As](O)O [As(III), arsenite] ?
Completion: ~160 µM

====

# system-tested: AntR (Comamonas testosteroni)
# Sequence (A0A096F4H2 1-124): as the sequence (A0A096F4H2 1-124 Y97W) above, with W97Y counted along it
quantity-kind: Kd (µM)
Answers are plain numbers, in µM.

Prompt: Request the reported Kd associated with O[As](O)O
Completion: 440
